Origin of the recorded values: paper PMC11648681

Assay info: CCK-8 cell viability of THP-1 cells after 48 h compound treatment in HaCaT/THP-1 co-culture
Format: cell-based, human
Protocol conditions: human, THP-1 cells in co-culture with HaCaT cells, 500 μg/mL, 48 h, THP-1, individual replicate values
# label = Condition met if viability at 48 h, 500 μg/mL < 20% else Condition not met

// below: answered compounds
{"columns": ["Compound", "Classification"],
 "data": [
  ["CC(C)(C)c1cc(O)ccc1O [THBQ, Tert-butylhydroquinone]", "Condition met"],
  ["CC(C)CCCC(C)CCCC(C)CCCCC(C)CCCC(C)CCCC(C)C (centres unmarked)", "Condition not met"],
  ["O=CCc1ccccc1", "Condition not met"],
  ["OCC(O)CO", "Condition not met"]
]}

Just wondering, is viability at 48 h, 500 μg/mL of Sc1nc2ccccc2s1 below 20%?
Condition not met
